- targetEntity: T1, rat PrRP receptor in RC-4B/C cells (rat, UniProt Q64121 1-370)
- T1 construct: whole, on cells; also called the rat receptor; GPR10
- T1 sequence (looked up): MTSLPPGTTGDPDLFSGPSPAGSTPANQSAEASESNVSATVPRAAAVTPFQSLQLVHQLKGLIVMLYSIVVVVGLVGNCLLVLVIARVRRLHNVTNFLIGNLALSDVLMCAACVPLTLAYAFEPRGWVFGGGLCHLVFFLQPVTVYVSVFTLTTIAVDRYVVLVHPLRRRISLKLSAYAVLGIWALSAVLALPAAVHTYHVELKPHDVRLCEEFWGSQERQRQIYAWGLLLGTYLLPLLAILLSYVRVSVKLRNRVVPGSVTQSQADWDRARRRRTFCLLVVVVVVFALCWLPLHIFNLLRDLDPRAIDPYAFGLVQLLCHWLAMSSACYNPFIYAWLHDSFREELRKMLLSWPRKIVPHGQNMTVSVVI
- protocolSummary: competition with 125I-rat PrRP31 on RC-4B/C cells
Where no end group is shown, it is not given here. [ ]: non-standard residue; d: D form. The star is where a group is joined. Phe(F5) = N[C@@H](Cc1c(F)c(F)c(F)c(F)c1F)C(=O)O; 1Nal = N[C@@H](Cc1cccc2ccccc12)C(=O)O; Stearoyl = CCCCCCCCCCCCCCCCCC(=O)*; Palmitoyl = CCCCCCCCCCCCCCCC(=O)*; Myristoyl = CCCCCCCCCCCCCC(=O)*; PheCl2 = dichlorophenylalanine; PheNO2 = nitrophenylalanine; Decanoyl = CCCCCCCCCC(=O)*; Nle = CCCC[C@H](N)C(=O)O
propertyName: log10(Ki) (log10 of the value in µM)
Record value = log10 of Ki given in µM.

Example binders with recorded log10(Ki):
>>> print(df.to_string())
                                     binder  testvalue
0  Palmitoyl-SRAHQHS[Nle]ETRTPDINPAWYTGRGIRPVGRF-NH2 [analog no. 19]      -3.29
1  SRAHQHS[Nle]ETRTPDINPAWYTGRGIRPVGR[1Nal]-NH2 [analog no. 21]      -0.99
2  Palmitoyl-SRAHQHS[Nle]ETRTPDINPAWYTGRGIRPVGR[PheCl2]-NH2 [analog no. 26]      -2.89
3  Myristoyl-SRAHQHS[Nle]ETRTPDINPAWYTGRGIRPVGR[PheNO2]-NH2 [analog no. 28]      -2.71
4  SHQRPADTHWYPRG[Nle]FPTIGRITARNGEVSR (printed without a C-terminal amide) [analog no. 30]       3.12
5  Decanoyl-SRAHQHS[Nle]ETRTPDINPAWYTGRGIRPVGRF-NH2 [analog no. 16]      -3.19
6  Stearoyl-SRAHQHS[Nle]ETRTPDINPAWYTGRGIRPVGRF-NH2 [analog no. 20]      -3.02
7  Myristoyl-[code f][code r]GVPRIGRGTYWAPNIDPT-NH2 [analog no. 37]      -0.44

Here are 7 binders. What values of log10(Ki) were reported for them?
1. [code f][code r]GVPRIGRGTYWAPNIDPT-NH2 [analog no. 36]
2. Myristoyl-SRAHQHS[Nle]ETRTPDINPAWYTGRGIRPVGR[PheCl2]-NH2 [analog no. 25]
3. Myristoyl-SHQRPADTHWYPRG[Nle]FPTIGRITARNGEVSR (printed without a C-terminal amide) [analog no. 31]
4. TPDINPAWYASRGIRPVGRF-NH2 [analog no. 51]
5. Palmitoyl-SRAHQHS[Nle]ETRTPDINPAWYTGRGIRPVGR[1Nal]-NH2 [analog no. 23]
6. SRAHQHS[Nle]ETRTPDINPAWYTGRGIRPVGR[Phe(F5)]-NH2 [analog no. 32]
7. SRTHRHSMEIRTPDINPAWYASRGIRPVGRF-NH2 (also called hPrRP31; analog no; 50) [Human PrRP31]

Result:
1: 0.72; 2: -2.75; 3: -0.91; 4: -2.62; 5: -2.66; 6: -2.01; 7: -2.75
